So I've got a bunch of compounds here, and I need their melting point values.

Use these answered entries as a reference point.
CC(C)(C)OC(=O)CCOCCCc1cccc(-c2nc(=O)c3ccccc3s2)n1; 71 to 71.9 °C
Cc1cccc2c(=O)nc(-c3cccc(C(=O)O)n3)sc12; 260.5 to 260.8 °C
CCCCCS(=O)(=O)c1cccc(-c2nc(=O)c3ccccc3s2)n1; 160 to 161 °C
O=c1nc(-c2cccc(CN3CCCCC3)n2)sc2ccccc12; 162 to 163 °C

stdin: Bench note: what melting point did `O=c1nc(-c2cccc(CN3CCOCC3)n2)sc2ccccc12` show?
stdout: 191.8 °C (dec.)

* * *

So I've got a bunch of compounds here, and I need their melting point values.

Use these answered entries as a reference point.
CCS(=O)(=O)Cc1cccc(-c2nc(=O)c3ccccc3s2)n1 [Example 251]; 188.5 to 190 °C
O=C(O)c1ccc2c(=O)nc(-c3ccccn3)sc2c1 [Example 135]; 294.7 to 295.1 °C

Below are 2 compounds. Give each one its melting point.
1. CCN1CCN(c2ccnc(-c3nc(=O)c4ccccc4s3)c2)C1=O [Example 325]
2. O=C(NCc1cccc(-c2nc(=O)c3ccccc3s2)n1)c1ccccc1 [Example 207]

stdout:
["211.5 to 213 °C", "213.9 to 214.7 °C"]

Below are 5 compounds. Give each one its melting point.
1. O=C(NC1CC1)c1ccc2c(=O)nc(-c3ccccn3)sc2c1 [Example 239]
2. O=C(c1ccc2c(=O)nc(-c3ccccn3)sc2c1)N1CCCC1 [Example 238]
3. C[S+]([O-])c1cc(CCC(=O)O)cc(-c2nc(=O)c3ccccc3s2)n1 (stereo not drawn) [Example 344]
4. O=c1nc(-c2cccc(CN3CCC(O)(c4ccc(Cl)cc4)CC3)n2)sc2ccccc12
5. NC(=O)c1cccc(-c2nc(=O)c3ccccc3s2)n1 [Example 38]

stdout:
1. 272.1 to 274.1 °C
2. 173.6 to 174.2 °C
3. 265.5 to 266 °C
4. 151 to 153 °C
5. 294.6 to 294.9 °C

* * *

So I've got a bunch of molecules here, and I need their melting point values.
Counter-ions that a name gives are not always drawn.

Use these answered entries as a reference point.
CCC(=O)NCc1cccc(-c2nc(=O)c3ccccc3s2)n1 [Example 205]; 199 to 199.8 °C
O=c1nc(-c2cccc(CS(=O)(=O)Cc3ccccc3)n2)sc2ccccc12 [Example 257]; 246 to 248 °C
O=C(NCC(F)(F)F)c1cccc(-c2nc(=O)c3ccccc3s2)n1 [Example 82]; 242.6 to 244.2 °C
CN(CC(=O)OC(C)(C)C)c1nccc(-c2nc(=O)c3ccccc3s2)n1 [Example 293]; 186.5 to 188 °C
CC(C)(C)S(=O)(=O)c1cccc(-c2nc(=O)c3ccccc3s2)n1 [Example 154]; 233.6 to 234.7 °C

Below are 6 molecules. Give each one its melting point.
1. CC[S+]([O-])c1cccc(-c2nc(=O)c3ccccc3s2)n1 (stereo not shown) [Example 149]
2. Cc1cc(CCC(=O)OC(C)(C)C)cc(-c2nc(=O)c3ccc(Cl)cc3s2)n1 [Example 320]
3. Cc1cc(C)c2sc(-c3cccc(CCCOCCC(=O)O)n3)nc(=O)c2c1 [Example 88]
4. CN(C(=O)c1cccs1)c1cccc(-c2nc(=O)c3ccccc3s2)n1 [Example 111]
5. CC(C)COc1ccc2sc(-c3ccccn3)nc(=O)c2c1 [Example 117]
6. NCCCCCCNC(=O)c1cccc(-c2nc(=O)c3ccccc3s2)n1 (as salt: hydrochloride) [Example 107]

stdout:
["181.5 to 182.1 °C", "186.4 to 187.6 °C", "156.5 to 157.1 °C", "191.5 to 192.9 °C", "135.5 to 136.5 °C", "95.2 to 97.6 °C"]

Below are 3 molecules. Give each one its melting point.
1. O=c1nc(-c2cccc(CSc3ccccn3)n2)sc2ccccc12 [Example 272]
2. NCCc1ccnc(-c2nc(=O)c3ccccc3s2)c1 (as salt: trifluoroacetic acid salt) [Example 221]
3. O=c1nc(-c2ccccn2)sc2cccc(F)c12 [Example 21]

stdout:
151.3 to 151.9 °C
209 to 210.7 °C
256.5 to 257.2 °C

* * *

So I've got a bunch of compounds here, and I need their melting point values.

Use these answered entries as a reference point.
CC(C)(C)OC(=O)CCc1ccc(-c2nc(=O)c3ccccc3s2)nc1; 160 to 161 °C
CN(C(=O)c1ccccc1)c1cccc(-c2nc(=O)c3ccccc3s2)n1; 234 to 235.4 °C
CC(=O)NCCc1cccc(-c2nc(=O)c3ccccc3s2)n1; 206.7 to 207.9 °C
Cc1cc(C)c2sc(-c3ccccn3)nc(=O)c2c1; 245 to 245.8 °C
Nc1ccnc(-c2nc(=O)c3ccccc3s2)c1; 207.6 to 207.9 °C

Below are 8 compounds. Give each one its melting point.
1. CC(=O)N(C)c1cccc(-c2nc(=O)c3ccccc3s2)n1
2. O=c1nc(-c2cccc(-n3cccn3)n2)sc2ccccc12
3. CN(C)C(=O)Nc1cccc(-c2nc(=O)c3ccccc3s2)n1
4. COC(=O)c1ccccc1Sc1cc(-c2nc(=O)c3ccccc3s2)ccn1
5. O=C(NCCc1cccc(-c2nc(=O)c3ccccc3s2)n1)Nc1ccccc1
6. O=C(O)CCc1cccc(-c2nc(=O)c3ccccc3s2)n1
7. NC(=O)CSc1cccc(-c2nc(=O)c3ccccc3s2)n1
8. CC(C)(C)OC(=O)COc1ccc2sc(-c3ccccn3)nc(=O)c2c1

stdout:
1. 218.3 to 220.3 °C
2. 253 to 254 °C
3. 230.1 to 230.3 °C
4. 137 to 137.9 °C
5. 234.8 to 236.4 °C
6. 243.2 to 243.5 °C
7. 256.7 to 257 °C
8. 183 to 184.1 °C

Below are 6 compounds. Give each one its melting point.
1. O=c1nc(-c2ccnc(-c3ccccc3)c2)sc2ccccc12
2. CCOP(=O)(Cc1cccc(-c2nc(=O)c3ccccc3s2)n1)OCC
3. O=c1nc(-c2ccc(CO)cn2)sc2ccccc12
4. O=c1nc(-c2ccc(N3CCOCC3)nc2)sc2ccccc12
5. CC(C)(C)OC(=O)CCc1ccnc(-c2nc(=O)c3ccc(Cl)cc3s2)c1
6. CC(C)(C)OC(=O)C[S+]([O-])c1cccc(-c2nc(=O)c3ccccc3s2)n1 (centres unmarked)

stdout:
162.7 to 163 °C
115.5 to 116.5 °C
246.9 to 247.9 °C
232.6 to 234.4 °C
151.8 to 152.1 °C
158.8 to 159.1 °C

stdin: Bench note: what melting point did `Cc1cccnc1-c1nc(=O)c2ccccc2s1` show?
stdout: 149.9 to 151.6 °C

* * *

So I've got a bunch of molecules here, and I need their melting point values.

Use these answered entries as a reference point.
O=C(O)CSc1cccc(-c2nc(=O)c3ccccc3s2)n1 [Example 276]; 258 to 260 °C
O=c1nc(-c2cccc(CN3CCN(c4ccc(F)cc4)CC3)n2)sc2ccccc12 [Example 265]; 156 to 157 °C
N#CCCc1cccc(-c2nc(=O)c3ccccc3s2)n1 [Example 306]; 156.6 to 157 °C
CCc1cccc(-c2nc(=O)c3ccccc3s2)n1 [Example 140]; 150.5 to 150.9 °C
CC(C)(C)OC(=O)NCCc1ccnc(-c2nc(=O)c3ccccc3s2)c1 [Example 218]; 159.8 to 161 °C
Cc1ccc(-c2nc(=O)c3ccccc3s2)n1C [Example 16]; 194.3 to 195.7 °C
O=c1nc(-c2cccc([S+]([O-])Cc3ccccc3)n2)sc2ccccc12 (stereo not drawn) [Example 160]; 208.5 to 210 °C
O=C(O)CCCCCCc1cccc(-c2nc(=O)c3ccccc3s2)n1 [Example 307]; 148.6 to 150.6 °C

Below are 7 molecules. Give each one its melting point.
1. Cc1ccnc(-c2nc(=O)c3ccccc3s2)c1 [Example 138]
2. CN(CC(=O)O)C(=O)CCc1cccc(-c2nc(=O)c3ccccc3s2)n1 [Example 314]
3. COCOCc1cccc(-c2nc(=O)c3ccccc3s2)n1 [Example 65]
4. O=c1nc(-c2ccc(C(F)(F)F)cn2)sc2ccccc12 [Example 49]
5. C[S+]([O-])c1ccc(-c2nc(=O)c3ccccc3s2)cn1 (stereo not drawn) [Example 261]
6. CC(C)CCSc1ccc(-c2nc(=O)c3ccccc3s2)cn1 [Example 92]
7. CC(C)(C)Sc1cccc(-c2nc(=O)c3ccccc3s2)n1 [Example 128]

stdout:
["199.7 to 199.9 °C", "194.5 to 194.8 °C", "159.6 to 159.8 °C", "207.2 to 207.4 °C", "195 to 196.5 °C", "92.8 to 93.1 °C", "152.9 to 153.8 °C"]

Below are 8 molecules. Give each one its melting point.
1. CS(=O)(=O)NCc1cccc(-c2nc(=O)c3ccccc3s2)n1 [Example 211]
2. O=c1nc(-c2cc[n+]([O-])cc2)sc2ccccc12 [Example 55]
3. Cc1cc(CCC(=O)OC(C)(C)C)cc(-c2nc(=O)c3ccccc3s2)n1 [Example 319]
4. O=C(O)CCOCCCc1cccc(-c2nc(=O)c3ccccc3s2)n1 [Example 67]
5. O=c1nc(-c2ccccn2)sc2ccc(OCCCc3ccccc3)cc12 [Example 120]
6. O=c1nc(-c2cccc(CN3CCC(Cc4ccccc4)CC3)n2)sc2ccccc12 [Example 268]
7. CS(=O)(=O)c1ccc(-c2nc(=O)c3ccccc3s2)cn1 [Example 262]
8. CCC[S+]([O-])Cc1cccc(-c2nc(=O)c3ccccc3s2)n1 (stereo not drawn) [Example 253]

stdout:
["188.1 to 189.5 °C", "248.2 to 251.7 °C", "129.4 to 130.5 °C", "141 to 142 °C", "170 to 170.3 °C", "151 to 153 °C", "205 to 207 °C", "171 to 173 °C"]

stdin: Bench note: what melting point did O=c1nc(-c2ccc(Sc3ccc(Cl)cc3)nc2)sc2ccccc12 [Example 36] show?
stdout: 221.5 to 222 °C
